system: parental HEK cells; assay: HEK parental Agonist Counterscreen Assay (non-transfected cells); format: cell-based; details: HEK Agonist Activity section
Quantity measured: Lipophilic Efficiency (logP)

(A) O=C(CN1C(=O)NC2(CCc3ccccc3C2)C1=O)Nc1cccc2ccccc12 (centres unmarked) [SR-01000042749]
(B) O=C(CCc1nc2ccccc2s1)NNC(=O)CSc1ccccc1F [SR-01000069574]
-- ask Select the item with the higher value of Lipophilic Efficiency (logP) from the options A and B listed. Lab log: write the label of the selected item as the result.
-- reply B

---

test system: parental HEK cells; test: HEK parental Agonist Counterscreen Assay (non-transfected cells); format: cell-based; settings: HEK Agonist Activity section
Quantity measured: Lipophilic Efficiency (logD)

Below: 3 compounds and their reported Lipophilic Efficiency (logD).
* Cc1cc(C)c2c(cnn2CC(=O)N2CCc3ccccc3C2)c1 | 1.52
* Cc1ccc(CNC(=O)Cn2nc(-c3ccc(C)cc3)ccc2=O)cc1 | 1.62
* Cc1ccc(Nc2cn[nH]c(=S)n2)c(C)c1 | 2.37

(A) Cc1ccc(CN2CC34C=CC(O3)C(C(=O)NCCC3=CCCCC3)C4C2=O)cc1 (centres unmarked)
(B) Cc1ccc(CNc2nc3ccccc3n2CCN2CCOCC2)cc1
-- ask Which value of Lipophilic Efficiency (logD) is numerically greater: that of A or that of B ? Pick one and reply with its label.
-- reply A

(a) CC(C)Cn1c2c(c(=O)[nH]c1=O)C(NC(=O)CCC1CCCCC1)(C(F)(F)F)C(=O)N2 (centres unmarked)
(b) O=C(NCCS(=O)(=O)N1CCc2ccccc2C1)C(c1ccccc1)c1ccccc1
-- ask From the items above, decide which of a and b has the lower Lipophilic Efficiency (logD) reading. When you have decided, please share the label of that item.
-- reply b
(b: 1.49, a: 2.44)

---

molecular target: GPR139 (Homo sapiens); experiment: GPR139 Agonist titration / agonist counterscreen assay (calcium detection, HEK-GPR139 cells); format: cell-based; design: expressed in transfected cells; host or cells: HEK Aequorin cells, Maxcyte transient transfection; settings: GPR139 Agonist Activity; activity relative to known control
Quantity measured: Averaged Max % Response (±St. Dev.) (%)

Below, 10 compounds whose answers are already recorded.
- C=C1CC(C)(c2ccc(OC)cc2)C(=C)C1CC(=O)CC1CCCCC1 (stereo not drawn) [SR-01000918719]: 94.25
- O=C(Cn1ncc2c1-c1ccccc1OC2)Nc1ccccn1 [SR-01000135048]: 109.25
- CN(C)CCOc1cc(-c2cn[nH]c2)ccc1NC(=O)C1COc2ccc(F)cc2C1.O=C(O)C(F)(F)F.O=C(O)C(F)(F)F (stereo not drawn) [SR-00000004118]: 94.30
- Cc1ccc(CN2CCN(CC(=O)N3CC(C)CC(C)C3)C2=O)cc1 (stereo not drawn) [SR-01000150389]: 112.97
- COc1cc(-c2noc(CCC(=O)Nc3cccc(C)c3C)n2)cc(OC)c1OC [SR-01000139458]: 116.90
- CCCCC(O)CCNC(=O)C1CC(=O)N(CCc2ccc(C)cc2)C1 (stereo not drawn) [SR-01000145701]: 114.02
- CC(Oc1ccc(Cl)cc1Cl)C(=O)NNC(=O)c1ccncc1 (stereo not drawn) [SR-01000319951]: 97.49
- Cc1ccc(CCC(=O)NNC(=O)CCc2ccccc2)c(Br)c1 [SR-01000313193]: 90.41
- CC1CC(C)CN(C(=O)C2C3C=CC4(CN(Cc5ccccc5Cl)C(=O)C24)O3)C1 (stereo not drawn) [SR-01000583192]: 108.22
- Cn1cnnc1SCc1ccc(F)c2ccccc12 [SR-01000524029]: 98.34

(I) Cc1ccc(S(=O)(=O)NC(=O)NC(C)Cc2ccccc2)cc1 (stereo not drawn) [SR-01000362293]
(II) CCCCCCC(=O)NNC(=O)c1c(O)c2ccccc2n(CCC)c1=O [SR-01000360839]
-- ask Compare the recorded Averaged Max % Response (±St. Dev.) of I and II ; state which is larger. Label of pick, please.
-- reply I
(I: 100.19%, II: 57.17%)

---

Target: GPR139 (Homo sapiens)
Sequence (Q6DWJ6 1-353): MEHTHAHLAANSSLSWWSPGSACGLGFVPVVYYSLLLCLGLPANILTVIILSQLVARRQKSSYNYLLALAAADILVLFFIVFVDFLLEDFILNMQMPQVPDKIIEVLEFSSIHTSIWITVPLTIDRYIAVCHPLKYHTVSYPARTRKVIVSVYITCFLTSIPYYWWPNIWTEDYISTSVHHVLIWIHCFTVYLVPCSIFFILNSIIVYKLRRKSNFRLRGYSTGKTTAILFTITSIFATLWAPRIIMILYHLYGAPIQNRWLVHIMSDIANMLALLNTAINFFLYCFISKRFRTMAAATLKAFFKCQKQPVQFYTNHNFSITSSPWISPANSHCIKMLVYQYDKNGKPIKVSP
Experiment: GPR139 Antagonist titration assay (calcium detection, HEK-GPR139 cells, vs EC80 of S-JNJ-63533054)
Conditions: activity relative to known control
Quantity measured: GPR139 Antagonist Activity Averaged Max % Response (±St. Dev.) (%)

* O=C(NCCC1CCCCC1)N1c2ccccc2Sc2ccccc21 | 87.35
* N#CCC(=O)c1ccccc1Oc1ccc(F)cc1 | 70.81
* O=C(NCCCN1CCCC1=O)c1ccc(NCc2ccc(F)cc2)c(S(=O)(=O)Nc2cccc(C(F)(F)F)c2)c1 | 68.96
* Cc1ccc(-n2cc(-c3ccccc3)nc2SCC(=O)Nc2ccc(F)cc2)cc1 | 77.29
* COc1ccccc1CNC(=O)N1c2ccccc2Sc2ccccc21 | 86.87

(P) O=C(CCCC(=O)OCC(Cl)=C(Cl)Cl)Nc1ccccc1F
(Q) CC(C)C(=O)N1CCN(c2nc(-c3ccccc3)c3c(c2C#N)CCCC3)CC1
-- ask Form field 'greater GPR139 Antagonist Activity Averaged Max % Response (±St. Dev.)' accepts P or Q ; which applies? Answer by quoting the chosen item's label.
-- reply P
(P: 86.87%, Q: 54.78%)

(P) CCCCCCOC(=S)SCC(=O)Nc1ccccc1
(Q) Cc1ccc(-n2cc(-c3ccccc3)nc2SCC(=O)Nc2ccccc2)cc1
-- ask Given the listed items, does P or Q have the lesser reported GPR139 Antagonist Activity Averaged Max % Response (±St. Dev.)? Give the label of your selection.
-- reply Q

(1) Cc1cc(C(=O)N/N=C/c2cn(Cc3ccccc3)c3ccccc23)n[nH]1
(2) Brc1ccc2[nH]cc(-c3nnc4ccc5ccccc5n34)c2c1
-- ask Would you let me know which has the greater GPR139 Antagonist Activity Averaged Max % Response (±St. Dev.) value, 1 or 2 ? Write down the label of the entry you select.
-- reply 1
(1: 90.37%, 2: 60.57%)

---

target: GPR139 (Homo sapiens, UniProt Q6DWJ6); assay: GPR139 Agonist titration / agonist counterscreen assay (calcium detection, HEK-GPR139 cells); assay type: cell-based; set-up: expressed in transfected cells; host or cells: HEK Aequorin cells, Maxcyte transient transfection; conditions: agonist counterscreen of the antagonists
Quantity measured: GRP139 Agonist activity Averaged Max % Response (±St. Dev.) (%)

• O=C(CS(=O)(=O)c1ccccc1)Nc1ccc(Oc2ccccc2)cc1 = 4.67
• CCCOC(=O)c1ccc(NC(=O)CSc2ccccc2)cc1 = 7.91

(I) CCOC(=O)c1ccc2nc(C)c3c(c2c1)OC(C(C)(Cl)Br)C3 (centres unmarked)
(II) O=C(CCC(=O)OCc1ccc(Br)cc1)Nc1ccc(F)cc1
(III) Cc1ccc(CNC(=O)CSc2nc3ccsc3c(=O)n2NC(=O)c2cccc(Br)c2)cc1
(IV) O=C(Nc1ccccc1C(=O)O)c1ccc(Oc2ccc([N+](=O)[O-])cc2)cc1
(V) COc1ccc(-c2noc(CN3CCCN(c4ccc(F)cc4)CC3)n2)c(OC)c1OC
-- ask Ascending by GRP139 Agonist activity Averaged Max % Response (±St. Dev.), please. Would you mind listing the labels in the order requested?
-- reply III, V, II, IV, I

(P) CCc1ccccc1NC(=O)CSc1nnc(-c2ccccc2)c(-c2ccccc2)n1
(Q) Cc1cc(C(F)(F)F)nc(SCC(=O)Nc2cccc(C(F)(F)F)c2)c1C#N
-- ask Problem: Given the entries P and Q , determine which has the lower reported GRP139 Agonist activity Averaged Max % Response (±St. Dev.). Kindly state the label of the option you pick.
-- reply Q

(I) CCOC(=O)C(CC)Oc1ccc2c(C)c(Cc3ccccc3)c(=O)oc2c1 (centres unmarked)
(II) Nc1cccc(C(=O)Nc2cc(O)n(-c3c(Cl)cc(Cl)cc3Cl)n2)c1
(III) N#CCC(=O)c1ccccc1Oc1ccc(F)cc1
(IV) Cc1ccc(-c2cn(-c3ccccc3)c(SCC(=O)Nc3ccccc3C)n2)cc1
-- ask Please produce an ascending ranking of these compounds based on GRP139 Agonist activity Averaged Max % Response (±St. Dev.). // rank by listing labels in the order requested
-- reply II, IV, I, III
(II: 1.17%, IV: 4.27%, I: 10.58%, III: 25.24%)

(P) O=C(Nn1c(-c2cccc(Cl)c2)nc2ccccc2c1=O)c1cc(Br)ccc1Cl
(Q) COc1ccccc1-n1cc(-c2ccccc2)nc1SCC(=O)Nc1cccc(C)c1C
-- ask Which has the higher GRP139 Agonist activity Averaged Max % Response (±St. Dev.), P or Q ? Mark your answer with the label of the selected entry.
-- reply Q
(Q: 12.88%, P: 7.71%)
